Measured values drawn from PubChem BioAssay for this set.

Experiment: HCT116 colon cancer cell growth inhibition, primary screen, CellTiter-Glo luminescence, NPC library (AID 1117342)
Details: at 20 µM (top of the series)
Activity calls are given as the source filed them.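 The calls were made as follows: active = compounds that lower survival of HCT116 colon cancer cells in the luminescence readout, no numeric limit stated; inactive = the rest.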
Labels: 1 (active), -1 (inactive)

1) CCCCCCCCCCCCCCCC(=O)OC(C)C; -1
2) c1ccc2c(c1)CCCC2C1=NCCN1 (stereo not given); -1
3) C[C@]12CCC(=O)C=C1CC[C@@H]1[C@@H]2[C@@H](O)C[C@@]2(C)[C@H]1CC[C@]2(O)C(=O)CO; -1
4) Nc1ccc([N+](=O)[O-])c(C(F)(F)F)c1; -1
5) CCCCC(O)/C=C(C)/C=C/C=C/C(=O)N1CCCC1=O (stereo not given); -1
6) COc1cc2nc(N(C)CCCNC(=O)C3CCCO3)nc(N)c2cc1OC (stereo not given); -1
7) CC(=O)O[C@H]1C[C@@H]2CC[C@H]3[C@H]4C[C@H]([N+]5(C)CCCCC5)[C@@H](OC(C)=O)[C@@]4(C)CC[C@@H]3[C@@]2(C)C[C@H]1[N+]1(C)CCCCC1; -1
8) CCCCCC[C@@H](CCC)C(=O)O; -1
9) Cc1c(OCC(F)(F)F)ccnc1CS(=O)c1nc2ccccc2[nH]1 (stereo not given); 1
10) Cc1cc(O)cc2c1O[C@](C)(CCC[C@H](C)CCC[C@H](C)CCCC(C)C)CC2; -1

----------
Experiment: growth inhibition of GSK3B-pretreated HCT116 cells – cell-based, CellTiter-Glo, 0.2 to 20 µM (AID 1117336)
Conditions: HCT116 viability after GSK3B inhibitor, at 20 µM, stronger effect = higher value
viability decrease by entry:
REPORTED_ENDPOINT: viability decrease (%)

1) C/C=C/c1ccc(O)c(OC)c1; 2.5
2) CCCCc1oc2ccccc2c1C(=O)c1cc(I)c(OCCN(CC)CC)c(I)c1; 103
3) CCCCCCCCCC(=O)O; -11.4
4) COc1cc(/C=C/C(=O)O[C@H]2CC[C@]34C[C@]35CC[C@]3(C)[C@@H]([C@H](C)CCC=C(C)C)CC[C@@]3(C)[C@@H]5CC[C@H]4C2(C)C)ccc1O; 2.6
5) CCOCCn1c(C2CCN(CCc3ccc(C(C)(C)C(=O)O)cc3)CC2)nc2ccccc21; -2.4

----------
Assay: CellTiter-Glo luminescent readout of SW480 viability loss, NPC library primary (AID 1117343)
Details: CellTiter-Glo luminescence; at 20 µM (top of the series)
viability decrease (inhibition) by entry:
REPORTED_ENDPOINT: viability decrease (inhibition) (%)

1) CCC(Cc1c(I)cc(I)c(O)c1I)C(=O)O (configuration not stated); 11.5
2) Cc1cc(O)c(Cl)c(C)c1Cl; -0.8
3) CCOc1ccc(S(=O)(=O)O)c2cccnc12; 1.9
4) Nc1nc(N)c2nc(-c3ccccc3)c(N)nc2n1; 75.8
5) CC(C)(C)NC[C@H](O)COc1nsnc1N1CCOCC1; -4.9
6) [O-][n+]1ccccc1SSc1cccc[n+]1[O-]; -68.5
7) Nc1ccc(/C=C/c2ccc(N)cc2S(=O)(=O)O)c(S(=O)(=O)O)c1; 13

----------
Assay: inhibition of endothelial tube formation, primary screen, imaging, VEGF stimulated, CD31 staining, tube area, NPC library (AID 1117340)
Conditions: VEGF-stimulated ADSC/ECFC co-culture, at 10 µM, stronger effect = higher value
# tube area decrease >= -10% gives Y, anything below gives N

1. Nc1ccc(C(=O)Nc2ccccc2N)cc1; Y
2. CC(=O)OC[C@H]1O[C@@H](n2ncc(=O)[nH]c2=O)[C@H](OC(C)=O)[C@@H]1OC(C)=O; Y
3. C#CC(C)(CC)OC(=O)c1ccccc1C(=O)O (stereo unspecified); Y
4. CCCc1ccc(C(=O)O)cc1; Y
5. CC(=O)SCC(CC(=O)c1ccc(C)cc1)C(=O)O (stereo unspecified); N
6. CCOc1ccccc1O[C@H](c1ccccc1)[C@H]1CNCCO1; Y
7. NC(=O)NS(=O)(=O)c1ccc(Cl)cc1; N
8. COCCc1ccc(OCC2CO2)cc1 (stereo unspecified); N
9. CC(C)NCC(O)c1cc(O)cc(O)c1 (stereo unspecified); Y
10. C[C@H]1O[C@@H](O[C@H]2CC[C@@]3(C)[C@H](CC[C@@H]4[C@@H]3C[C@@H](O)[C@]3(C)[C@@H](C5=CC(=O)OC5)CC[C@]43O)C2)C[C@H](O)[C@@H]1O[C@H]1C[C@H](O)[C@H](O[C@H]2C[C@H](O)[C@H](O[C@@H]3O[C@H](CO)[C@@H](O)[C@H](O)[C@H]3O)[C@@H](C)O2)[C@@H](C)O1; Y
11. CCN1CCN(c2cc(-c3ccc(F)cc3)c3c(n2)CCCCCC3)CC1; Y
12. Nc1ccc(S(=O)(=O)c2ccc(N)cc2)cc1; Y
13. Oc1cccc(-c2c3nc(c(-c4cccc(O)c4)c4ccc([nH]4)c(-c4cccc(O)c4)c4nc(c(-c5cccc(O)c5)c5ccc2[nH]5)CC4)C=C3)c1; N
14. O=C(O)CCC(=O)C(=O)O; N
15. CC/C=C(\C(=O)N[C@@H]1C(=O)N2C(C(=O)OCOC(=O)C(C)(C)C)=C(COC(N)=O)CS[C@H]12)c1csc(N)n1; Y
16. NS(=O)(=O)c1cc2c(cc1C(F)(F)F)NC(Cc1ccccc1)NS2(=O)=O (stereo unspecified); N
17. C[C@@H](O)[C@H]1C(=O)N2C(C(=O)O)=C([C@H]3CCCO3)S[C@H]12; N
18. c1ccc2[nH]ccc2c1; Y
19. O=[N+]([O-])c1nccn1CO[C@@H](CO)[C@H](O)CO; N
20. N#CCC(=O)NN; Y
21. Nc1c(I)cc(I)c(C(=O)N(CCC(=O)O)c2ccccc2)c1I; Y

----------
Test system: R275C
Test: modulators of BK channel variants, profiling panel, selectivity assay, cell-based, U2OS BacMam, thallium flux, beta subunits (AID 1259406);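 also: initial slope of Thallos dye fluorescence rise after thallium is added; log ratio against the mean of 0.3% DMSO vehicle wells on the same plate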
Conditions: at 30 µM
# log fold change Tl+ flux >= -0.005 gives t, anything below gives f

1. CN=C(NC#N)NCCSCc1nc[nH]c1C; t
2. CC[N+](C)(C)c1cccc(O)c1; t
3. CC(C)C1CCC(C(=O)N[C@H](Cc2ccccc2)C(=O)O)CC1 (stereo not given in full); f
4. CC[C@H](C)C(=O)O[C@H]1C[C@H](O)C=C2C=C[C@H](C)[C@H](CC[C@@H](O)C[C@@H](O)CC(=O)O)[C@H]21; f
5. O[C@@H](c1cc(C(F)(F)F)nc2c(C(F)(F)F)cccc12)[C@H]1CCCCN1; t
6. CCCCC1=NC2(CCCC2)C(=O)N1Cc1ccc(-c2ccccc2-c2nn[nH]n2)cc1; t
7. CCc1nc(N)nc(N)c1-c1ccc(Cl)cc1; f
8. CCN(CC)CC(=O)Nc1c(C)cccc1C; t
9. COC1=CC(=O)C[C@@H](C)[C@]12Oc1c(Cl)c(OC)cc(OC)c1C2=O; f
10. CCOC(=O)[C@H](CCc1ccccc1)N[C@@H](C)C(=O)N1Cc2ccccc2C[C@H]1C(=O)O; f

----------
viability by entry:
Assay: liver-stage malaria parasite growth inhibition, primary screen, cell-based, HepG2, luciferase luminescence, HepG2 viability (AID 624349);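 also: 100% = mean of DMSO negative control wells on the same plate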
Conditions: P. berghei liver stage in HepG2, luciferase luminescence, concentration not given here; measured here: HepG2 viability without parasites
REPORTED_ENDPOINT: viability (%)

1) O[C@@H](c1cc(C(F)(F)F)nc2c(C(F)(F)F)cccc12)[C@H]1CCCCN1; 0.505
2) Fc1ccc(-c2nc3n(c2-c2ccncc2)CCS3)cc1; 65.6
3) CC[C@H]1CN2CCc3cc(OC)c(OC)cc3[C@@H]2C[C@@H]1C[C@H]1NCCc2cc(OC)c(OC)cc21; 76.3
4) CC(=O)OCC(=O)[C@@]1(O)CC[C@H]2[C@@H]3CCC4=CC(=O)C=C[C@]4(C)[C@H]3[C@@H](O)C[C@@]21C; 90.8
5) O=C1[C@H](CC[C@H](O)c2ccc(F)cc2)[C@@H](c2ccc(O)cc2)N1c1ccc(F)cc1; 65.3
6) CC(=O)OCC(=O)[C@@]1(O)CC[C@H]2[C@@H]3CCC4=CC(=O)CC[C@]4(C)[C@H]3C(=O)C[C@@]21C; 95.8
7) Cc1ccc(O)c([C@H](CCN(C(C)C)C(C)C)c2ccccc2)c1; 67.2
8) CN1C(=O)C(c2c[nH]c3ccccc23)=C(c2c[nH]c3ccccc23)C1=O; 125
9) Nc1nccc(-c2c(-c3ccc(F)cc3)ncn2C2CCNCC2)n1; 61.1
10) CCCCCCCCCCC[C@@H](C[C@@H]1OC(=O)[C@H]1CCCCCC)OC(=O)[C@H](CC(C)C)NC=O; 74.1
11) COc1ccc(COc2ccc(Cc3cnc(N)nc3N)cc2OC)cc1; 98.2
12) C=CCCCCCCCCC(=O)O; 96.2
13) CC1(C)O[C@@H]2C[C@H]3[C@@H]4CCC5=CC(=O)C=C[C@]5(C)[C@@]4(F)[C@@H](O)C[C@]3(C)[C@]2(C(=O)CO)O1; 87.8
14) C[C@]12CCC(=O)C=C1CC[C@@H]1[C@@H]2[C@@H](O)C[C@@]2(C)[C@H]1CC[C@]2(O)C(=O)COC(=O)CCC(=O)O; 105
15) OCCN1C[C@H](O)[C@@H](O)[C@H](O)[C@H]1CO; 80
